Tested on: MDA-MB-435 melanoma
Experiment: NCI-60 one-dose screen, 48 h
Conditions: 10 µM unless noted
Protocol: Growth inhibition of the MDA-MB-435 human Melanoma tumor cell line is measured as a screen for anti-cancer activity. Cells are grown in 96 well plates and exposed to the test compound for 48 hours. Compounds are tested at a single concentration, which is 10^-5 M for most compounds. The reported endpoint is percent growth (GI% or GIPRCNT), where numbers from 0 - 100% represent growth inhibition, and numbers from -100% - 0 represent cell death. […]
Compounds without any hit were thinned out: in the full panel of roughly 83,000, 20% have a hit. Calls of active or inactive are those of the source. The calls were made as follows: active = growth percent below 10; inactive = the rest.
Labels: 1 for active, 0 for inactive

# STRUCTURE, ANSWER LABEL
records = [
    ("COC(=O)[C@@H](C)C[C@H](Cc1ccccc1)NC(=O)c1cccc([C@@H](C[C@H](C(C)C)N(C)C(=O)[C@@H](NC(=O)[C@H]2CCCCN2C)C2CC2)OC(C)=O)n1", 1),
    ("O=[N+]([O-])c1ccc(CI)cc1", 0),
    ("COC[C@H]1OC(=O)c2coc3c2[C@@]1(C)C1=C(C3=O)[C@@H]2CCC(=O)[C@@]2(C)C[C@H]1OC(C)=O", 0),
    ("c1ccc2c(c1)sc1ccccc12", 0),
    ("O=[N+]([O-])c1cc(Br)c(O)c(Br)c1", 0),
    ("C=CC[PH+](c1ccccc1)c1ccccc1.C=CC[PH+](c1ccccc1)c1ccccc1.[Pt+2].[S-]c1ncccn1.[S-]c1ncccn1", 1),
    ("N#CC(C#N)=C(C#N)C#N", 0),
    ("O=C(CBr)OCCOC(=O)CBr", 0),
    ("Cc1nc2ccccc2c(=O)n1-c1ccccc1F", 0),
    ("N#CCN(CC#N)[N+](=O)[O-]", 0),
]

----------
Below: a set of entries, each annotated with reported growth.
test system: NCI/ADR-RES ovarian; test: NCI-60 one-dose screen, 48 h (100 = growth as untreated, 0 = no growth, -100 = all killed); conditions: 10 µM unless noted
The panel holds about 83,000 compounds, 20% with a hit somewhere; the sample as a whole holds those more often.

# COMPOUND, growth [%]
records = [
    ("[N-]=[N+]=CC(=O)CCC(=O)C=[N+]=[N-]", 103),
    ("C[C@]12CCc3sc(Nc4ccc(F)cc4)nc3C1=CC[C@@H]1[C@@H]2CC[C@]2(C)C(=O)CC[C@@H]12", 80.3),
    ("Nc1nc(=S)nc(N)[nH]1", 95.6),
    ("CC[C@H](CC[C@@H](C)[C@H]1CC[C@H]2[C@@H]3CC[C@H]4C[C@]5(CC[C@]4(C)[C@H]3CC[C@]12C)OO[C@](C)(C(F)(F)F)O5)C(C)C", 98),
    ("CC(=O)C(N)Cc1ccccc1 (stereo unspecified)", 99.4),
    ("CN1[C@@H](CC(=O)c2ccccc2)CCC[C@H]1CC(=O)c1ccccc1", 99),
    ("O=C(CBr)OCCOC(=O)CBr", 99.9),
    ("O=C1CCCCC1CN1CCCCC1 (stereo unspecified)", 101),
    ("C/C(=C\\c1ccn(-c2ccc(N)cc2F)n1)[C@@H]1C[C@@H]2O[C@]2(C)CCC[C@H](C)[C@H](O)[C@@H](C)C(=O)C(C)(C)[C@@H](O)CC(=O)O1", -11.9),
    ("CCOC(=O)c1cncn1C(C)c1ccccc1 (stereo unspecified)", 109),
    ("CNC(=O)CCl", 103),
]

----------
system: K-562 leukemia; assay: NCI-60 one-dose screen, 48 h; settings: 10 µM unless noted
The panel holds about 83,000 compounds, 20% with a hit somewhere; the sample as a whole holds those more often. The source made the active and inactive calls. The calls were made as follows: active = growth percent below 10; inactive = the rest.
Classes used: active, inactive

# COMPOUND, TARGET DESC, ANSWER LABEL
rows = [
    ("CC(=O)C(N)Cc1ccccc1 (stereo unspecified)", "K-562 leukemia", "inactive"),
    ("CCOP(=O)(OCC)C(=O)N(CC)CC", "K-562 leukemia", "inactive"),
    ("Cn1cc(C(=O)C[n+]2ccccc2)c2ccccc21", "K-562 leukemia", "inactive"),
    ("CC12CCC3C(CCC4CC(O)CCC43C)C1CCC2=O (stereo unspecified)", "K-562 leukemia", "inactive"),
    ("CCOC(=O)C1C(C=C(C)C)C1(C)C (stereo unspecified)", "K-562 leukemia", "inactive"),
    ("C=CC[PH+](c1ccccc1)c1ccccc1.C=CC[PH+](c1ccccc1)c1ccccc1.[Pt+2].[S-]c1ncccn1.[S-]c1ncccn1", "K-562 leukemia", "active"),
]

----------
System: CCRF-CEM leukemia
Assay: NCI-60 one-dose screen, 48 h (100 = growth as untreated, 0 = no growth, -100 = all killed)
Settings: 10 µM unless noted
Protocol: Growth inhibition of the CCRF-CEM human tumor cell line is measured as a screen for anti-cancer activity. Cells are grown in 96 well plates and exposed to the test compound for 48 hours. Compounds are tested at a single concentration, which is 10^-5 M for most compounds. The reported endpoint is percent growth (GI% or GIPRCNT), where numbers from 0 - 100% represent growth inhibition, and numbers from -100% - 0 represent cell death. For example, a value of 40 represents 60% growth inhibition. […]
The panel holds about 83,000 compounds, 20% with a hit somewhere; the sample as a whole holds those more often.
MEASURED ENDPOINT: growth (%)

# COMPOUND, MEASURED ENDPOINT, NUMBER
measured = [
    ("O=[N+]([O-])c1c(Cl)cc(Cl)c([N+](=O)[O-])c1Cl", "growth", 53.5),
    ("O=C1c2ccccc2C(=O)N1N1CC1c1ccccc1 (stereo unspecified)", "growth", 94.7),
    ("C[C@]12CC[C@H]3[C@@H](CC=C4c5nc(N)sc5CC[C@@]43C)[C@@H]1CC[C@@H]2O", "growth", 91.2),
    ("O=c1c2ccccc2nc(-c2ccccc2Cl)n1-c1nnc(C(F)(F)F)s1", "growth", 7.41),
    ("CCN1C(=O)CC(=O)N(CC)C1=S", "growth", 94.8),
    ("O=C(O)CNCP(=O)(O)O", "growth", 90.9),
]

----------
tested on: SF-295 CNS; assay: NCI-60 one-dose screen, 48 h; settings: 10 µM unless noted
This is part of a sample that, as a whole, favours compounds with a hit. Of some 83,000 tested, about 20% had one in any assay. Active and inactive are the calls of the source. The calls were made as follows: active = growth percent below 10; inactive = the rest.
Outcome codes: active, inactive

# COMPOUND, TARGET DESC, ANSWER LABEL
rows = [
    ("C[C@]12CC[C@H]3[C@@H](C[C@@H]4SC(Nc5cccc(F)c5)=N[C@@]45CC(=O)CC[C@]35C)[C@@H]1CCC2=O", "SF-295 CNS", "active"),
    ("CC1(C)N(Nc2ccccc2)C(=O)C2CCCN21 (stereo not given)", "SF-295 CNS", "inactive"),
    ("CC/C(Cc1ccccc1)=C(\\c1ccc(OCCN2CCCC2)cc1)c1ccc(OC(=O)NCc2ccccc2)cc1", "SF-295 CNS", "inactive"),
    ("Cc1ccc(P(=O)(O)O)cc1", "SF-295 CNS", "inactive"),
    ("COc1cc2c(cc1OC)-c1c3c(cc4c1[C@@H](C2)N(C)CC4)OCO3", "SF-295 CNS", "inactive"),
]

----------
tested on: SNB-19 CNS; assay: NCI-60 one-dose screen, 48 h (100 = growth as untreated, 0 = no growth, -100 = all killed); details: 10 µM unless noted
The panel holds about 83,000 compounds, 20% with a hit somewhere; the sample as a whole holds those more often.

# MOLECULE, SCALE UNIT, growth
rows = [
    ("COc1ccc(C(C#N)C(C)=O)cc1 (stereo not drawn)", "%", 105),
    ("N#CCc1ccc(CC#N)cc1", "%", 93.2),
    ("O=C(O)CNCP(=O)(O)O", "%", 123),
    ("C[N+]1(C)CCCC1c1cccnc1 (stereo not drawn)", "%", 105),
    ("O=Cc1cn(Cc2ccccc2)c2ccccc12", "%", 93.8),
    ("C[C@]12CCc3sc(Nc4ccc(O)cc4)nc3C1=CC[C@@H]1[C@@H]2CC[C@]2(C)C(=O)CC[C@@H]12", "%", 64.6),
    ("CCOP(=O)(NC)OCC", "%", 102),
    ("C=C[Se]CC(=O)/C=C/c1ccccc1", "%", 31.3),
    ("CC(C)CCC1C(=O)NC(=O)NC1=O", "%", 115),
    ("CC1(C)N=C(N)N=C(N)N1c1ccc(CCC(=O)Nc2ccc(S(=O)(=O)F)cc2)cc1", "%", 55),
    ("CCCn1cc2c3c(cccc31)[C@H]1C[C@@H](C)CN(C)[C@@H]1C2", "%", 91.2),
    ("O=[N+]([O-])c1c(Cl)cc(Cl)c([N+](=O)[O-])c1Cl", "%", 113),
    ("CCOC(=O)P(=O)(OCC)OCC", "%", 97.9),
]
